assay: growth inhibition of non-replicating M. tuberculosis (AID 488890); details: Mycobacterium tuberculosis non-replicating, at 25 µM, stronger effect = higher value;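 note: plate controls were DMSO cells for no effect and high antibiotic wells for full effect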
In all, about 320,000 compounds went through this assay and about 1,300 (0.41%) were called active. Inconclusive results (about 3%) are left out. Only a sample is shown. Potency and affinity values are given separately.
# reported inhibition; entries follow

Compound	inhibition [%]
Nc1ccc(Br)cc1Br	-19.9
O=C(NNC(=O)c1ccccc1Cl)c1ccc2c(=O)n3c(nc2c1)CCC3	1.89
O=C(COc1ccccc1Cl)NNC(=O)c1ccc2c(=O)n3c(nc2c1)CCC3	-23
COc1ccc(CN(C)C(=O)c2ccc3c(=O)n4c(nc3c2)CCC4)cc1	-3.83
CN(C)CCn1c2c(c(SCC(=O)Nc3ccc4c(c3)OCCO4)nc1=O)CCC2	-16.4
CCOC(=O)C1CCCc2c1[nH]c1c(C(=O)O)cccc21 (stereo unspecified)	67.3
CCn1c(O)c(C=NC2CCCC2)sc1=S	-4.02
CCc1ccc(NC(=S)N2CCN(C)CC2)cc1	-4.9
Oc1ccc(C=NC2CCCCC2)c(O)c1	-6.4
O=C(c1ccc2c(=O)n3c(nc2c1)CCCCC3)N1CCN(c2ccc([N+](=O)[O-])cc2)CC1	25.7
CCOC(=O)c1ccc2[nH]c3c(c2c1)CCCC3C(=O)OCC (stereo unspecified)	64.3

---

assay: growth inhibition of non-replicating M. tuberculosis (AID 488890); details: Mycobacterium tuberculosis non-replicating, at 25 µM, stronger effect = higher value;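 note: plate controls were DMSO cells for no effect and high antibiotic wells for full effect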
The whole screen tested about 320,000 compounds, of which about 1,300 (0.41%) were called active. Not shown: some 3% with an inconclusive outcome. A selection follows. Measured potencies and affinities stand elsewhere.
# reported inhibition; entries follow

Compound	inhibition (%)
Cc1cc(=O)[nH]c(SCC(=O)Nc2ccc(S(=O)(=O)N3CCOCC3)cc2)n1	-13.9
Cc1ccc2c(c1)N(S(=O)(=O)c1ccc(CN3C(=O)c4cccnc4C3=O)cc1)CCO2	15.3
COc1cc(C(=O)COC(=O)c2ccc([N+](=O)[O-])o2)cc(OC)c1OC	34.7
CCc1ccc(C(=O)OCC(=O)c2c(N)n(CC(C)C)c(=O)n(C)c2=O)cc1	24.9
Cc1cccc(N2CC(C(=O)Nc3ccc4c(c3)OCCO4)CC2=O)c1C (stereo unspecified)	-5.78
Cc1nn(C)cc1CN1CCC(CO)(CCOc2ccccc2)CC1	-0.6
O=C(COC(=O)c1ccc([N+](=O)[O-])o1)NCc1ccccc1	49.8
CCOC(=O)N1c2ccccc2Sc2ccccc21	11.9
CCCC(C)C1c2c(c(C)c(C)oc2=O)Oc2c(C)c(C)oc(=O)c21 (stereo unspecified)	25.8
N#Cc1ccc(OCC(=O)NCCN2CCOCC2)cc1	2.06
O=C(CCN1CCN(C/C=C/c2ccccc2)CC1)Nc1ccccc1F	-1.04

---

assay: growth inhibition of non-replicating M. tuberculosis (AID 488890); conditions: Mycobacterium tuberculosis non-replicating, at 25 µM, stronger effect = higher value;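 note: plate controls were DMSO cells for no effect and high antibiotic wells for full effect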
Out of some 320,000 compounds screened, about 1,300 (0.41%) were called active. Another 3% or so got no clear call; they are omitted. Only a sample is shown. Entries with a potency or affinity are not part of this list.

Molecule	inhibition (%)
C=CCOc1ccc(Br)cc1CNC(C)(C)C	54.2
CC1(C(O)(C#CCN2CCCCC2)c2ccccc2)CCCC1 (stereo not given)	3.27
COc1cccc(CNC(=O)CN2CCC(c3nc4ccc(C)cc4[nH]3)CC2)c1	6.15
COc1cc2c(cc1OC)CN(C(=O)CCC(=O)c1ccc(F)cc1)CC2	19.6
CC(CN1CCOCC1)OC(=O)c1ccccc1 (stereo not given)	-8.24
COc1cc2c(cc1OC)CN(CCOc1ccc(Br)cc1)CC2	17.6
Cn1nnc(NCc2cc(Br)ccc2OCc2cccs2)n1	24.3
CC(C)(C)NCc1ccccc1OCc1cccs1	6.2
COc1ccc(CN2CCN(c3ccccc3OC)CC2)cc1OC	-6.29
CC1CCC/C(=C\Nc2ccc(C(=O)O)cc2)C1=O (stereo not given)	-12.5
N#CC(=NCc1cccnc1)C1=C(O)c2ccccc2C1=O	16.1
COc1ccc(N=C(C)C2=C(O)c3ccccc3C2=O)cc1	21
COc1cccc(-c2cccc(NC(=O)C3CCN(Cc4cccc(C)n4)CC3)c2)c1	5.93
O=C(CCN1CCOCC1)c1ccccc1	75.5
CC(CN1CCCC1)OC(=O)c1ccc(Br)cc1 (stereo not given)	-10.6
O=c1c2cc([N+](=O)[O-])cc([N+](=O)[O-])c2[nH]n1-c1ccccc1	5.65
CC(C)NC(=O)COc1ccc(OCc2ccccc2)cc1	62.9
O=C(CCn1c(=S)oc2ccccc21)Nc1ccccc1Br	-5.39
CC(=O)Nc1ccccc1OCc1cnc(Cl)s1	21
COc1cc(S(=O)(=O)Nc2ccncc2)ccc1F	-1.45
C[C@H](NC(=O)OCc1ccccc1)C(=O)NNC(=O)[C@H](C)NC(=O)OCc1ccccc1	2.12
CCn1ncc(Br)c1C(=O)Nc1cc(C)cc(C)c1	-11
COc1ccc(-n2c(O)c(C=NCCCn3ccnc3)c(=O)[nH]c2=O)cc1	-3.58
O=C(CN1CCOCC1)c1ccc(Br)cc1	61.8
COc1ccccc1-n1cnnc1SC(C)C(=O)Nc1ccc(NC(C)=O)cc1 (stereo not given)	-12.2
